# credit: patent US20250034207A1

System: ddY mice
protocolNotes: Tail suspension test in mice after oral administration
Format: in vivo
settings: reduction of control immobility relative to SEQ ID NO:1, 0.3 mg/kg oral; average where tested more than once
No end group written: not given here.
As shown below, each of these substances has a reported % of SEQ ID NO: 1 activity value.
State the answer as a number, implicitly in %.

Take a look at these entries with their results.
substance	u	recordedNumber
LSSTQAQQSY (Designed peptide) [SEQ ID NO:1]	%	100
LSSTQAQQSYLQGF (Designed peptide) [SEQ ID NO:43]	%	−19.33

Query: Look up and state reported % of SEQ ID NO: 1 activity for WLSSTQ (Designed peptide) [SEQ ID NO:40]
Response: 56.36

Query: Complete the entry with % of SEQ ID NO: 1 activity for SSTQAQQS (Designed peptide) [SEQ ID NO:28]
Response: 82.07

Query: Please indicate % of SEQ ID NO: 1 activity recorded for WLSSTQAQQSY (Designed peptide) [SEQ ID NO:38]
Response: 55.25

Query: For LSSTQAQQSY-NH2 [SEQ ID NO:36, C-terminal amidated peptide conjugate] , write its % of SEQ ID NO: 1 activity.
Response: 89.12

###

System: ddY mice
protocolNotes: Tail suspension test in mice after oral administration
Assay type: in vivo
settings: reduction of control immobility relative to SEQ ID NO:1, 0.3 mg/kg oral; average where tested more than once
# label = rule met if % of SEQ ID NO: 1 activity < 50% else rule not met

Reference set, count: 4
substance	labelValue
FFLSSTQAQQSYLQ (Designed peptide) [SEQ ID NO:44]	rule met
LSSTQAQQS (Designed peptide) [SEQ ID NO:2]	rule met
LSSTQAQQSW (Designed peptide) [SEQ ID NO:6]	rule not met
SSTQAQQSY (Designed peptide) [SEQ ID NO:3]	rule not met

Query: Please determine if ESFFLSSTQAQQSY (Designed peptide) [SEQ ID NO:42] is below 50% in terms of % of SEQ ID NO: 1 activity.
Response: rule met

###

Tested on: ddY mice
protocolNotes: Tail suspension test in mice after oral administration
Assay type: in vivo
settings: reduction of control immobility relative to SEQ ID NO:1, 0.3 mg/kg oral; average where tested more than once
Param label: returns 1 (yes) when % of SEQ ID NO: 1 activity < 50%, returns 0 (no) otherwise, including exact equality.

Check out these entries, answers already filled in.
substance	testSystem	labelValue
LSSTQAQQSYW (Designed peptide) [SEQ ID NO:37]	ddY mice	0 (no)
LSSTQAQQ (Designed peptide) [SEQ ID NO:27]	ddY mice	1 (yes)
AQQSYW (Designed peptide) [SEQ ID NO:41]	ddY mice	1 (yes)

Query: Given LSSTQAQQSF (Designed peptide) [SEQ ID NO:7] , is recorded % of SEQ ID NO: 1 activity strictly lower than 50%?
Response: 0 (no)

Query: Hello, is % of SEQ ID NO: 1 activity of the following substance strictly smaller than 50%? WLSSTQAQQSYW (Designed peptide) [SEQ ID NO:39]
Response: 1 (yes)
